# System: LG0567-F671-PDC KRAS tumor spheroid viability
# ASSAY_METHOD_TEXT: Anticancer human tumor LG0567-F671-PDC patient-derived lung adenocarcinoma cell line growth inhibition [KRAS2]
# STUDY_CONDITIONS: second compound 0.1 µM; first compound 0.316 µM; hits give low values; spheroids with HUVEC and MSC
Output schema: class label derived from viability, T/C. Mapping: group A: < 30%; group B: ≥ 30% and < 50%; group C: ≥ 50%

Below, 6 compounds whose answers are already recorded.
-- ask Category of CCNC(=O)CC1N=C(c2ccc(Cl)cc2)c2cc(OC)ccc2-n2c(C)nnc21 (centres undefined) + C=CC(=O)N1CCN(c2nc(OCC3CCCN3C)nc3c2CCN(c2cccc4cccc(C)c24)C3)CC1CC#N :
-- reply group A

-- ask Same for CC(=O)OC12COC1CC(O)C1(C)C(=O)C(O)C3=C(C)C(OC(=O)C(O)C(NC(=O)OC(C)(C)C)c4ccccc4)CC(O)(C(OC(=O)c4ccccc4)C21)C3(C)C (centres undefined) + COc1cc2nc(C)nc(NC(C)c3cc(N)cc(C(F)(F)F)c3)c2cc1OC1CCOC1
-- reply group C

-- ask Same for COC(=O)c1ccc2c(C(=Nc3ccc(N(C)C(=O)CN4CCN(C)CC4)cc3)c3ccccc3)c(O)[nH]c2c1 + CNCc1ccccc1-c1csc(C(C)Nc2nc(C)nc3cc(OC)c(OC)cc23)c1
-- reply group C

-- ask Same for CC1OCC2(CCN(c3cnc(Sc4ccnc(N)c4Cl)c(N)n3)CC2)C1N (centres undefined) + C=CC(=O)N1CCN(c2nc(=O)n(-c3c(C)ccnc3C(C)C)c3nc(-c4c(O)cccc4F)c(F)cc23)C(C)C1
-- reply group A

-- ask Same for COc1cc2nccc(Oc3ccc(NC(=O)C4(C(=O)Nc5ccc(F)cc5)CC4)cc3)c2cc1OC + CNCc1ccccc1-c1csc(C(C)Nc2nc(C)nc3cc(OC)c(OC)cc23)c1
-- reply group C

-- ask Same for CCN1CCN(Cc2ccc(Nc3ncc(F)c(-c4cc(F)c5nc(C)n(C(C)C)c5c4)n3)nc2)CC1 + C=CC(=O)N1CCN(c2nc(=O)n(-c3c(C)ccnc3C(C)C)c3nc(-c4c(O)cccc4F)c(F)cc23)C(C)C1
-- reply group A

New cases:
-- ask Category of CC1COCCN1c1cc(-c2ccnn2C)c2ccnc(-c3ccn[nH]3)c2n1 (centres undefined) + C=CC(=O)N1CCN(c2nc(=O)n(-c3c(C)ccnc3C(C)C)c3nc(-c4c(O)cccc4F)c(F)cc23)C(C)C1 :
-- reply group A

-- ask Same for CC1COCCN1c1cc(-c2ccnn2C)c2ccnc(-c3ccn[nH]3)c2n1 (centres undefined) + CNCc1ccccc1-c1csc(C(C)Nc2nc(C)nc3cc(OC)c(OC)cc23)c1
-- reply group C

---

# Tested on: LG0567-F671-PDC KRAS tumor spheroid viability
# ASSAY_METHOD_TEXT: Anticancer human tumor LG0567-F671-PDC cell line growth inhibition [KRAS2];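 note: drug exposure lasted seven days after spheroids formed for three days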
# STUDY_CONDITIONS: second compound 0.1 µM; first compound 0.0316 µM; hits give low values; spheroids with HUVEC and MSC
Output Yes for records whose viability, T/C is lower than 70%, No for records at or above 70%.

-- ask Does this compound meet the criterion viability, T/C < 70%? CC(=O)OC12COC1CC(O)C1(C)C(=O)C(O)C3=C(C)C(OC(=O)C(O)C(NC(=O)OC(C)(C)C)c4ccccc4)CC(O)(C(OC(=O)c4ccccc4)C21)C3(C)C (stereo not given) + CC1OCC2(CCN(c3cnc(Sc4ccnc(N)c4Cl)c(N)n3)CC2)C1N
-- reply Yes

New cases:
-- ask Does this compound meet the criterion viability, T/C < 70%? CN(C)C/C=C/C(=O)Nc1cc2c(Nc3ccc(F)c(Cl)c3)ncnc2cc1O[C@H]1CCOC1 + C=CC(=O)N1CCN(c2nc(OCC3CCCN3C)nc3c2CCN(c2cccc4cccc(C)c24)C3)CC1CC#N
-- reply Yes

-- ask Same for COc1cc2nccc(Oc3ccc(NC(=O)C4(C(=O)Nc5ccc(F)cc5)CC4)cc3)c2cc1OC + CNCc1ccccc1-c1csc(C(C)Nc2nc(C)nc3cc(OC)c(OC)cc23)c1
-- reply No

-- ask Same for COC(=O)c1ccc2c(C(=Nc3ccc(N(C)C(=O)CN4CCN(C)CC4)cc3)c3ccccc3)c(O)[nH]c2c1 + C=CC(=O)N1CCN(c2nc(OCC3CCCN3C)nc3c2CCN(c2cccc4cccc(C)c24)C3)CC1CC#N
-- reply Yes

Sourced from PubChem BioAssay AID1963856
